Could you please report measured ALE THP1 HTRF YMIN for the items listed next?
Target: IRAK4 (Homo sapiens, UniProt Q9NWZ3)
Sequence (Q9NWZ3 whole entry): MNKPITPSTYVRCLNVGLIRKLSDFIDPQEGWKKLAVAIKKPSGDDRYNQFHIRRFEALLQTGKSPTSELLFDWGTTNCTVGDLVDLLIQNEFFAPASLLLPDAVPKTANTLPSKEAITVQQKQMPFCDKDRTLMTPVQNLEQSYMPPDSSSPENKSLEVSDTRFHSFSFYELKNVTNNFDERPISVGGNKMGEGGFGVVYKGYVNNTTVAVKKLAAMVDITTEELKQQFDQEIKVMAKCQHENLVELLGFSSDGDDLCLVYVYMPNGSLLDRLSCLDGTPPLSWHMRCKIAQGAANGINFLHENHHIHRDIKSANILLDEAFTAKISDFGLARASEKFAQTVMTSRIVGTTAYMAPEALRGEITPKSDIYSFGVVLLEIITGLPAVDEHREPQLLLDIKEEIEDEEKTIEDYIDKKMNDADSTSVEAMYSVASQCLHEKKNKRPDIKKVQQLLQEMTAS
Assay: ALE THP1 HTRF (IRAK4 degradation in THP1 cells, HTRF with anti-IRAK4 antibodies)
Assay type: cell-based
Design: THP1 Homogeneous Time Resolved Fluorescence (ALE THP1 HTRF) Procedure; endogenous in cells; host or cells: THP1
Settings: THP1 cell lysate, YMIN
Where a name gives a salt, the structure may show the parent alone.
Numbers only, in %.

compound	displayUnit	ALE THP1 HTRF YMIN
N[C@@H]1C[C@@H](F)CN(c2ccn3ncc(C(=O)Nc4cn([C@H]5CC[C@H](C(=O)N[C@H]6CC[C@H](c7ccc(C8CCC(=O)NC8=O)cn7)CC6)CC5)nc4C(F)F)c3n2)C1 (some centres unmarked) [Compound P-33]	%	22

Answer for every listed entry: what is its ALE THP1 HTRF YMIN? The entries follow.
1. CN(CC1CCN(C[C@H]2CC[C@H](n3cc(NC(=O)c4cnn5ccc(N6C[C@H](N)C[C@@H](F)C6)nc45)c(C(F)F)n3)CC2)CC1)c1cccc(C2CCC(=O)NC2=O)c1 (some centres unmarked) [Compound P-19, dihydrochloride]
2. N[C@@H]1C[C@@H](F)CN(c2ccn3ncc(C(=O)Nc4cn([C@H]5CC[C@H](C(=O)NC6CCN(c7ccc(C8CCC(=O)NC8=O)cn7)CC6)CC5)nc4C(F)F)c3n2)C1 (some centres unmarked) [Compound P-32, hydrochloride]

1: 11; 2: 21

Form field: reported ALE THP1 HTRF YMIN of N[C@@H]1C[C@@H](F)CN(c2ccn3ncc(C(=O)Nc4cn([C@H]5CC[C@H](C(=O)NC6CCN(c7ccc(C8CCC(=O)NC8=O)cc7)CC6)CC5)nc4C(F)F)c3n2)C1 (some centres unmarked) [Compound P-15, hydrochloride] 11
